compounds and their reported EC50
Tested on: eNOS promoter
TEST_SUMMARY: Activation of eNOS transcription (eNOS promoter-luciferase reporter gene assay)
Format: cell-based
SETTINGS: human endothelial cell line stably transfected with eNOS promoter-luciferase construct, 18 h incubation, determined graphically; read-out: EC50 values of transcription induction ratios (TIR)

O=C1CCCCCN1CCCc1ccc(-c2ccc(F)cc2)nc1 [Example 18] : < 500 nM
Cc1cc(-c2ccc(OCCN3C(=O)CCC3=O)cn2)ccc1F [Example 86] : < 500 nM
O=C1CCC(=O)N1CCOc1ccc(-c2cccc3ccccc23)nc1 [Example 66] : 500 to 5000 nM

Query string: Would you kindly share the measured EC50 for N#Cc1cccc(-c2ccc(OCCN3C(=O)CCC3=O)cn2)c1 [Example 64] ?
Result string: 500 to 5000 nM

Query string: Field entry: O=C1CSC=CN1CCCc1ccc(-c2ccc(F)cc2)nc1 [Example 25]
Result string: < 500 nM

Query string: Again, but for O=C(O)CCCC(=O)NCCCc1ccc(-c2ccc(F)cc2)nc1 [Example 17]
Result string: 500 to 5000 nM

Query string: And the next one, O=C1CSCCN1CCCc1ccc(-c2ccccc2Cl)nc1 [Example 7] ?
Result string: 500 to 5000 nM

Query string: How about O=C1CCC(=O)N1CCOc1ccc(-c2ccc(F)c(Cl)c2)nc1 [Example 50] ?
Result string: < 500 nM

Query string: Please give the result for Cc1csc(-c2ccc(OCCN3C(=O)CCC3=O)cn2)c1 [Example 52] too.
Result string: < 500 nM

Query string: Check O=C1CCC(=O)N1CCNc1nc(-c2ccc(F)cc2)cs1 [Example 34] too.
Result string: 500 to 5000 nM
